This collection of values is drawn from paper PMC8119466.

Target: recombinant PRL-3 (Homo sapiens)
Construct: 6xHis (N, cleaved yes); made in house; host or cells: E. coli One Shot BL21 Star
Sequence (O75365 whole entry): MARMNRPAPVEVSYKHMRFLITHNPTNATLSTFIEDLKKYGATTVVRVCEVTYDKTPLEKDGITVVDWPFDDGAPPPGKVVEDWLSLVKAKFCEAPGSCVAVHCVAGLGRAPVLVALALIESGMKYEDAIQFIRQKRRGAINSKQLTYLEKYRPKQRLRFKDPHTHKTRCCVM
Test: In vitro phosphatase assay (DiFMUP hydrolysis), PRL-3; note: test concentration or dose not given here
Format: biochemical
Conditions: FDA-approved drug screen; compared to DMSO
Would you kindly list % Phosphatase Activity (compared to DMSO) PRL-3 for each of these compounds?
Answers are plain numbers, in %.

Some compounds with known % Phosphatase Activity (compared to DMSO) PRL-3 results, for comparison:
compound	display_unit	measured_value
NCC[C@H](O)C(=O)N[C@@H]1C[C@H](N)[C@@H](O[C@H]2O[C@H](CN)[C@@H](O)[C@H](O)[C@H]2O)[C@H](O)[C@H]1O[C@H]1O[C@H](CO)[C@@H](O)[C@H](N)[C@H]1O [Amikacin disulfate]	%	110
C=C1[C@H](CO)[C@@H](O)C[C@@H]1n1cnc2c(=O)[nH]c(N)nc21 [Entecavir Hydrate]	%	71

Now for a further compound.
Bench note: what % Phosphatase Activity (compared to DMSO) PRL-3 did "Cc1ccc(-n2nc(C(C)(C)C)cc2NC(=O)NCc2cc(F)ccc2Oc2ccc3c(cnn3CCO)c2)cc1" show?
117

----------
Target: recombinant PRL-1 (Homo sapiens, UniProt Q93096)
Construct: 6xHis (N, cleaved yes); made in house; host or cells: E. coli One Shot BL21 Star
Sequence (Q93096 1-173): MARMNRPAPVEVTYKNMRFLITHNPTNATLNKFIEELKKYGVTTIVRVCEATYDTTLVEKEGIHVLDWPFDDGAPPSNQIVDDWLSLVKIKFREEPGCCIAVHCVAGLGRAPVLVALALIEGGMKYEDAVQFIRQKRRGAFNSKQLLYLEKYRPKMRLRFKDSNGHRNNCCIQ
Experiment: In vitro phosphatase assay (DiFMUP hydrolysis), PRL-1; note: test concentration or dose not given here
Format: biochemical
Details: FDA-approved drug screen; compared to DMSO
assay_metric: % Phosphatase Activity (compared to DMSO) PRL-1
Please append the unit to your numeric answer.

Some molecules with known % Phosphatase Activity (compared to DMSO) PRL-1 results, for comparison:
molecule	system	measured_value
COc1ccc([C@H]2CNC(=O)C2)cc1OC1CCCC1 [S- (+)-Rolipram]	recombinant PRL-1 (Homo sapiens, UniProt Q93096)	107%
Cc1cc(Nc2ncc(Cl)c(Nc3ccccc3S(=O)(=O)C(C)C)n2)c(OC(C)C)cc1C1CCNCC1 [LDK378]	recombinant PRL-1 (Homo sapiens, UniProt Q93096)	99%
COc1ccc2[n-]c([S@@+]([O-])Cc3ncc(C)c(OC)c3C)nc2c1.[Na+] [Esomeprazole Sodium]	recombinant PRL-1 (Homo sapiens, UniProt Q93096)	112%
Cc1nc(C)c(Cl)c(O)c1Cl [Clopidol]	recombinant PRL-1 (Homo sapiens, UniProt Q93096)	112%

Now for a further molecule.
Provide value of % Phosphatase Activity (compared to DMSO) PRL-1 for this record tested with recombinant PRL-1 (Homo sapiens, UniProt Q93096): O=[N+]([O-])c1ccc(O)c2ncccc12 [Nitroxoline]
58%

----------
Molecular target: recombinant PRL-1 (Homo sapiens, UniProt Q93096)
Construct: 6xHis (N, cleaved yes); made in house; host or cells: E. coli One Shot BL21 Star
Experiment: In vitro phosphatase assay (DiFMUP hydrolysis), PRL-1; note: test concentration or dose not given here
Assay type: biochemical
Details: FDA-approved drug screen; compared to DMSO
assay_metric: % Phosphatase Activity (compared to DMSO) PRL-1 (%)
Give bare numbers, in %.

compound	display_unit	measured_value
CC(=O)O[C@]1(C(C)=O)CC[C@H]2[C@@H]3C[C@H](C)C4=CC(=O)C=C[C@]4(C)[C@@]3(F)[C@@H](O)C[C@@]21C [Fluorometholone Acetate]	%	91
Cl.N=C(N)NN [Aminoguanidine (hydrochloride)]	%	100
C#Cc1cccc(Nc2ncnc3cc(OC)c(OCCCCCCC(=O)NO)cc23)c1 [CUDC-101]	%	94

Now for a further compound.
Bench note: what % Phosphatase Activity (compared to DMSO) PRL-1 did CN(C)C(=O)COC(=O)Cc1ccc(OC(=O)c2ccc(NC(=N)N)cc2)cc1 [Camostat Mesilate] show?
98
